Assay: qHTS drug screen for cell cycle checkpoint inhibitors in PARPi-resistant BRCA-mutant ovarian cancer cell lines. (AID 1963452)
Details: PEO1/OlaR viability, CellTiter-Glo luminescence, 96 h; measured here: PEO1 parental Z-AUC; stronger effect = lower value
Please go through the items and note down their Z-AUC.
// print number alone

[in] Given Cc1[nH]ncc1-c1cc2nc([C@@H]3CC4CCN3CC4)[nH]c(=O)c2s1 , state its recorded Z-AUC.
[out] 0.621

[in] So what's the measured Z-AUC for this one? CN1C(=O)[C@@H](NC(=O)[C@H](CCC(F)(F)F)[C@H](CCC(F)(F)F)C(N)=O)N=C(c2ccccc2)c2ccccc21
[out] 0.158

[in] Sample C=C(C)[C@@H]1CCC(C)=C[C@H]1c1c(O)cc(CCCCC)cc1O — what was its Z-AUC?
[out] 0.125

[in] Data request, read-out Z-AUC, for C/C=C(\C)C(=O)N[C@@H](c1ccccc1)[C@@H](O)C(=O)O[C@H]1C[C@@]2(O)[C@@H](OC(=O)c3ccccc3)[C@@H]3[C@]4(OC(C)=O)CO[C@@H]4C[C@H](O)[C@@]3(C)C(=O)[C@H](OC(C)=O)C(=C1C)C2(C)C
[out] -2.97

[in] Would you kindly share the measured Z-AUC for COC12C(COC(N)=O)C3=C(C(=O)C(C)=C(N)C3=O)N1CC1C2N1C (configuration not stated) ?
[out] 0.0826

[in] Sample Cn1c(/C=C/CO)c(CO)c2c1C(=O)C=C(N1CC1)C2=O — what was its Z-AUC?
[out] -0.939

[in] Field request: Z-AUC | item: CN1[C@@H]2CC(O)C[C@H]1[C@@H]1O[C@@H]12 (some centres not stated)
[out] 0.772

[in] Consider the compound N#CC(O[C@@H]1O[C@H](CO[C@@H]2O[C@H](CO)[C@@H](O)[C@H](O)[C@H]2O)[C@@H](O)[C@H](O)[C@H]1O)c1ccccc1 (some centres not stated) and give its measured Z-AUC.
[out] 0.644

[in] Look up Z-AUC: COc1cc2cc(c1Cl)N(C)C(=O)C[C@H](OC(=O)C(C)C)[C@]1(C)O[C@@H]1[C@H](C)[C@@H]1C[C@@](O)(NC(=O)O1)[C@H](OC)/C=C/C=C(\C)C2
[out] -2.8

[in] Would you kindly share the measured Z-AUC for C[C@]12COC(=O)C[C@@H]1CC[C@@H]1[C@@H]2CC[C@@]2(C)[C@H]1CC[C@]2(C)O ?
[out] 0.611

[in] Which Z-AUC value belongs to O=C(CBr)N1CC([N+](=O)[O-])([N+](=O)[O-])C1 ?
[out] 0.0375

[in] So what's the measured Z-AUC for this one? CC(=O)OC[C@H]1O[C@@H]([S-])[C@H](OC(C)=O)[C@@H](OC(C)=O)[C@@H]1OC(C)=O.CC[PH+](CC)CC.[Au]
[out] -0.483

[in] Entry CC1(C)CC(O)CC(C)(C)N1O has what Z-AUC?
[out] 0.652

[in] Which value of Z-AUC has been reported for Cn1c(COP(=O)(NCCBr)NCCBr)cnc1[N+](=O)[O-] in the records?
[out] 0.833

[in] Z-AUC lookup needed for CC(=O)O[C@@]12CO[C@@H]1C[C@H](O)[C@@]1(C)C(=O)[C@H](O)C3=C(C)[C@@H](O)C[C@@](O)([C@@H](OC(=O)c4ccccc4)[C@H]21)C3(C)C , thanks.
[out] 0.322

[in] So what does the record say about Z-AUC for Cc1c(N)nc([C@H](CC(N)=O)NC[C@@H](N)C(N)=O)nc1C(=O)N[C@H](C(=O)N[C@@H](C)[C@H](O)[C@@H](C)C(=O)N[C@@H](C(=O)NCCc1nc(-c2nc(C(=O)NCCC[S+](C)C)cs2)cs1)[C@@H](C)O)C(O[C@H]1O[C@H](CO)[C@H](O)[C@@H](O)[C@H]1O[C@H]1O[C@H](CO)[C@@H](O)[C@H](OC(N)=O)[C@@H]1O)c1cnc[nH]1 (some centres not stated) ?
[out] -1.76

[in] Could you share which Z-AUC value was measured for CC(C)(O)/C=C\C(=O)[C@](C)(O)[C@H]1[C@H](O)C[C@]2(C)[C@@H]3CC=C4[C@@H](C=C(O)C(=O)C4(C)C)[C@]3(C)C(=O)C[C@@]12C ?
[out] -1.67

====

Test: Primary qHTS for inhibitors of nuclear receptor binding SET domain protein 2 (NSD2) in an RCH-ACV wild type WT cells (2C) (AID 1645877); also: nearly all actives have a fitted effect of over 70% in size
Settings: RCH-ACV (leukaemia line) NSD2 WT (2C) viability, CellTiter-Glo, 72 h; series mostly up to 44.9 µM
Results filed as inconclusive are left out. Activity calls are given as the source filed them. The call rests on the fitted dose curve; in most records, active means well fitted inhibition curve with a large enough effect; inconclusive means small, poorly fitted or top-dose-only effect; inactive means no such curve, though single readings can be large or run the other way.
Allowed answers: active, inactive

[in] Record lookup: outcome of this test for C[C@@]12OC(=O)[C@]1([C@@H](O)[C@@H]1C=CCCC1)NC(=O)[C@@H]2CCCl ?
[out] active

[in] // outcome(item) with item = COC[C@H]1OC(=O)c2coc3c2[C@@]1(C)C1=C(C3=O)[C@@H]2CC[C@H](O)[C@@]2(C)C[C@H]1OC(C)=O
[out] active

[in] Hi team, can someone confirm the assay call for C=C(C)[C@@H]1CCC(C)=C[C@H]1c1c(O)cc(CCCCC)cc1O ?
[out] active

[in] Test call for this compound, please: Cc1[nH]ncc1-c1cc2nc([C@@H]3CC4CCN3CC4)[nH]c(=O)c2s1
[out] active

[in] Per the assay record, what outcome was assigned to C[C@H]1[C@H](O)[C@@H](C)/C=C/C=C/CC/C=C/C=C/C=C/C=C/[C@H](O[C@@H]2O[C@H](C)[C@@H](O)[C@H](N)[C@@H]2O)C[C@@H]2O[C@](O)(C[C@@H](O)[C@H](O)CC[C@@H](O)C[C@@H](O)C[C@@H](O)CC(=O)O[C@H]1C)C[C@H](O)[C@H]2C(=O)O ?
[out] inactive

[in] // param item: CCCCCCC(C)(C)c1cc(O)c2c(c1)OC(C)(C)C1CC=C(CO)C[C@H]21 (stereo partly specified) ; yields the recorded call
[out] inactive

[in] What classification did CC1(C)CC[C@]2(NC(=O)C(C)(F)F)CC[C@]3(C)[C@H](C(=O)C=C4[C@@]5(C)C=C(C#N)C(=O)C(C)(C)[C@@H]5CC[C@]43C)[C@@H]2C1 end up with in this test?
[out] active

[in] Hi, sorry to bother you, what did the test record for CN1C(=O)[C@@H](NC(=O)[C@H](CCC(F)(F)F)[C@H](CCC(F)(F)F)C(N)=O)N=C(c2ccccc2)c2ccccc21 ?
[out] inactive

[in] Each compound tested received a call. Report the one for Cn1c(COP(=O)(NCCBr)NCCBr)cnc1[N+](=O)[O-] .
[out] active

[in] Recorded test call requested for Cn1c(/C=C/CO)c(CO)c2c1C(=O)C=C(N1CC1)C2=O
[out] inactive

[in] Please let me know the test result on file for CC(=O)OC[C@H]1O[C@@H]([S-])[C@H](OC(C)=O)[C@@H](OC(C)=O)[C@@H]1OC(C)=O.CC[PH+](CC)CC.[Au] .
[out] active

[in] Please state the recorded outcome for this compound: COC(=O)[C@]12CCC(C)(C)C[C@@H]1[C@@H]1C(=O)C=C3[C@]4(C)C=C(C#N)C(=O)C(C)(C)[C@@H]4CC[C@@]3(C)[C@]1(C)CC2
[out] active

[in] Fill in: this test's call for C[C@@H](C1CC[C@@]2(O)C3=CC(=O)[C@@H]4C[C@@H](O)[C@@H](O)C[C@]4(C)[C@H]3CC[C@]12C)[C@H](O)CCC(C)(C)O (stereo partly specified) is ___
[out] inactive

[in] Identify the outcome logged in this assay for the compound shown: C=C[C@H]1CN2CCC1C[C@@H]2[C@@H](O)c1ccnc2ccccc12 (stereo partly specified)
[out] inactive

[in] What call does the record list for COc1cc(C)[nH]c(=O)c1CNC(=O)c1c(C)n([C@H](C)C2CCN(CC(F)(F)F)CC2)c2ccccc12 ?
[out] inactive

[in] Returns: the outcome recorded for COC12C(COC(N)=O)C3=C(C(=O)C(C)=C(N)C3=O)N1CC1C2N1C (stereo unspecified) in this assay.
[out] active

====

Tested on: CP250
Test: qHTS profiling for inhibitors of Plasmodium falciparum proliferation (AID 504749); also: nearly all actives have a fitted effect of over 60% in size
Details: P. falciparum in erythrocytes, SYBR Green DNA, 72 h; series mostly up to 12.8 µM
Records with an inconclusive call do not appear. Calls of active or inactive are those of the source. Calls follow the shape of the dose curve; as a rule, active = well fitted inhibition curve with a large enough effect; inconclusive = small, poorly fitted or top-dose-only effect; inactive = flat fitted curve, though single readings scatter.
In this exercise, the only acceptable responses are active, inactive

[in] What outcome does the record of this test show for Clc1ccc([C@@H](OCCN2CCCCC2)c2ccccc2)cc1 ?
[out] inactive

[in] Answer briefly: the call reported for CNC(C)[C@@H](O)c1ccccc1 (some centres undefined) in this assay.
[out] inactive

[in] Which result was noted for this compound in the test: C[C@@H]1O[C@H](O[C@@H]2C=C3CC[C@H]4[C@@H](CC[C@]5(C)[C@@H](c6ccc(=O)oc6)CC[C@]45O)[C@@]3(C)CC2)[C@@H](O)[C@H](O)[C@@H]1O
[out] inactive

[in] Could you check what this test reported for CCC(C)C1O[C@]2(C=CC1C)CC1CC(C/C=C(\C)[C@H](OC3CC(OC)C(O[C@H]4CC(OC)[C@@H](O)C(C)O4)C(C)O3)[C@@H](C)/C=C/C=C3\COC4C(O)C(C)=C[C@H](C(=O)O1)[C@@]34O)O2 (some centres undefined) ?
[out] active

[in] Per the assay record, what outcome was assigned to CC[C@@]1(c2ccc(N)cc2)CCC(=O)NC1=O ?
[out] inactive

[in] Returns: the outcome recorded for C[C@]12CC[C@H](OS(=O)(=O)O)CC1=CCC1C2CC[C@]2(C)C(=O)CC[C@@H]12 (some centres undefined) in this assay.
[out] inactive

[in] Query: recorded result category for N[C@H]1C[C@H]1c1ccccc1 in this test
[out] inactive

[in] Lab log entry: COc1cc(N)c(Cl)cc1C(=O)N[C@@H]1CN2CCC1CC2 — outcome as called in the assay?
[out] inactive

[in] Any idea what this test logged for CC([C@H](O)c1ccccc1)N(C)C (some centres undefined) ?
[out] inactive

Reference for the values: PubChem BioAssay (NCATS)
